Test system: LG0703-F498-PDC complex spheroid growth
Protocol Notes: Anticancer human tumor LG0703-F498-PDC patient-derived lung adenocarcinoma cell line growth inhibition [AhR]
Measurement Parameters: second compound 3.16 µM; first compound 1 µM; hits give low values
Listed next: entries and their corresponding viability, T/C.
Express your answer in %, writing the number without its unit.

Some compounds with known viability, T/C results, for comparison:
- Nc1ncn(C2CC(O)C(CO)O2)c(=O)n1 (stereo not given) + Cc1cncc(-c2nc(NCCc3c[nH]c4ccccc34)c3ncn(C(C)C)c3n2)c1: 60
- COc1ccc([C@@H](O)c2cc(-c3ncnc4cc(N5CCOCC5)ccc34)c(F)cc2Cl)nn1 + Cc1ccccc1N=Nc1ccc(NC(=O)c2ccnn2C)c(C)c1: 68.1
- O=C(c1cc(Cc2n[nH]c(=O)c3ccccc23)ccc1F)N1CCN(C(=O)C2CC2)CC1 + CC(CO)NC(=O)c1cc(-c2ccc(Cl)cc2)nn(-c2cnn(C)c2)c1=O: 74.1
- COc1cc(Nc2ncc3c(n2)-c2ccc(Cl)cc2C(c2c(F)cccc2OC)=NC3)ccc1C(=O)O + Cc1ccccc1N=Nc1ccc(NC(=O)c2ccnn2C)c(C)c1: 62.5

# ---- query compound ----
Measured viability, T/C, CC1(C)CCC(CN2CCN(c3ccc(C(=O)NS(=O)(=O)c4ccc(NCC5CCOCC5)c([N+](=O)[O-])c4)c(Oc4cnc5[nH]ccc5c4)c3)CC2)=C(c2ccc(Cl)cc2)C1 + CC(CO)NC(=O)c1cc(-c2ccc(Cl)cc2)nn(-c2cnn(C)c2)c1=O : 90.2

###

System: LG0703-F498-PDC complex spheroid growth
Protocol Notes: Anticancer human tumor LG0703-F498-PDC cell line growth inhibition [AhR];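 further: luminescence taken as a proxy for viable cell amount; percent of DMSO vehicle control where 100% means growth equal to vehicle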
Measurement Parameters: second compound 0.1 µM; first compound 10 µM; hits give low values
Listed next: entries and their corresponding viability, T/C.
Express your answer in %, writing the number without its unit.

Some molecules with known viability, T/C results, for comparison:
- O=C(C=Cc1cccc(S(=O)(=O)Nc2ccccc2)c1)NO + CC(CO)NC(=O)c1cc(-c2ccc(Cl)cc2)nn(-c2cnn(C)c2)c1=O: 1.6
- CC(C)c1c(-c2ccccc2)nc2c(C#N)c[nH]n2c1=O + Cc1ccccc1N=Nc1ccc(NC(=O)c2ccnn2C)c(C)c1: 102
- COc1cc(C2c3cc4c(cc3C(OC3OC5COC(C)OC5C(O)C3O)C3COC(=O)C23)OCO4)cc(OC)c1O (stereo unspecified) + CC(CO)NC(=O)c1cc(-c2ccc(Cl)cc2)nn(-c2cnn(C)c2)c1=O: 76.3
- COc1cc(C2c3cc4c(cc3C(OC3OC5COC(C)OC5C(O)C3O)C3COC(=O)C23)OCO4)cc(OC)c1O (stereo unspecified) + Cc1cncc(-c2nc(NCCc3c[nH]c4ccccc34)c3ncn(C(C)C)c3n2)c1: 63.4
- COc1ccc([C@@H](O)c2cc(-c3ncnc4cc(N5CCOCC5)ccc34)c(F)cc2Cl)nn1 + Cc1ccccc1N=Nc1ccc(NC(=O)c2ccnn2C)c(C)c1: 29

# ---- query molecule ----
Measured viability, T/C, COc1cc(Nc2ncc3c(n2)-c2ccc(Cl)cc2C(c2c(F)cccc2OC)=NC3)ccc1C(=O)O + Cc1cncc(-c2nc(NCCc3c[nH]c4ccccc34)c3ncn(C(C)C)c3n2)c1 : 35

###

Listed next: entries and their corresponding viability, T/C.
System: LG0703-F498-PDC complex spheroid growth
Protocol Notes: Anticancer human tumor LG0703-F498-PDC cell line growth inhibition [AhR];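 further: luminescence taken as a proxy for viable cell amount; percent of DMSO vehicle control where 100% means growth equal to vehicle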
Measurement Parameters: second compound 0.1 µM; first compound 10 µM; hits give low values
Express your answer in %, writing the number without its unit.

Some compounds with known viability, T/C results, for comparison:
• CC1(C)CCC(CN2CCN(c3ccc(C(=O)NS(=O)(=O)c4ccc(NCC5CCOCC5)c([N+](=O)[O-])c4)c(Oc4cnc5[nH]ccc5c4)c3)CC2)=C(c2ccc(Cl)cc2)C1 + CC(CO)NC(=O)c1cc(-c2ccc(Cl)cc2)nn(-c2cnn(C)c2)c1=O = 18.4
• O=C(c1cc(Cc2n[nH]c(=O)c3ccccc23)ccc1F)N1CCN(C(=O)C2CC2)CC1 + Cc1cncc(-c2nc(NCCc3c[nH]c4ccccc34)c3ncn(C(C)C)c3n2)c1 = 72.5
• O=C(c1cc(Cc2n[nH]c(=O)c3ccccc23)ccc1F)N1CCN(C(=O)C2CC2)CC1 + CC(CO)NC(=O)c1cc(-c2ccc(Cl)cc2)nn(-c2cnn(C)c2)c1=O = 70.4
• CC1COCCN1c1cc(C2(S(C)(=N)=O)CC2)nc(-c2ccnc3[nH]ccc23)n1 (configuration not stated) + Cc1cncc(-c2nc(NCCc3c[nH]c4ccccc34)c3ncn(C(C)C)c3n2)c1 = 59.2
• Nc1ccn(C2OC(CO)C(O)C2(F)F)c(=O)n1 (configuration not stated) + Cc1cncc(-c2nc(NCCc3c[nH]c4ccccc34)c3ncn(C(C)C)c3n2)c1 = 18.8
• COc1cccc2c1C(=O)c1c(O)c3c(c(O)c1C2=O)CC(O)(C(=O)CO)CC3OC1CC(N)C(O)C(C)O1 (configuration not stated) + Cc1ccccc1N=Nc1ccc(NC(=O)c2ccnn2C)c(C)c1 = 0.88

Measured viability, T/C, CC(C)c1c(-c2ccccc2)nc2c(C#N)c[nH]n2c1=O + Cc1cncc(-c2nc(NCCc3c[nH]c4ccccc34)c3ncn(C(C)C)c3n2)c1 : 81.6
